Reference source for all entries: ChEMBL document CHEMBL3091319

biological target: Dual specificity protein kinase CLK2 (Mus musculus, UniProt O35491); assay: Inhibition of mouse recombinant CLK2 expressed in Escherichia coli using GRSRSRSRSRSR as substrate
Sequence (O35491 whole entry): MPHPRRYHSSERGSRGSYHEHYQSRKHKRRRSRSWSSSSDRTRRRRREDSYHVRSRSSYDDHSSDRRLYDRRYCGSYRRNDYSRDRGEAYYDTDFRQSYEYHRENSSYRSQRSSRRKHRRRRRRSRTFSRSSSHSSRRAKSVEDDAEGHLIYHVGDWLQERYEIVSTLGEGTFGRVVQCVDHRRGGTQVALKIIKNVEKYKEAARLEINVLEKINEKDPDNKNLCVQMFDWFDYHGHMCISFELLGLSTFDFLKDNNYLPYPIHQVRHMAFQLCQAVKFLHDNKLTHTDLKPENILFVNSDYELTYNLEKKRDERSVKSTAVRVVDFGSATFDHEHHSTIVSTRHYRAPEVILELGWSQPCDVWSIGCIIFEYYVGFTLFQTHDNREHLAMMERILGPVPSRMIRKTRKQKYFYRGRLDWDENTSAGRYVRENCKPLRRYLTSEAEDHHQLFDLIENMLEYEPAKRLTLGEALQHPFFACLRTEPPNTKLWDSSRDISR
pIC50: −log10 of the molar value.
metric: pIC50

- structure-smiles: "NCCOCCOCCOc1ccc(NC2=N/C(=C\\c3ccccc3)C(=O)N2)cc1"
  metric: "pIC50"
  result: "< 5.00"

Challenge: Request - read-out pIC50 | tested on Dual specificity protein kinase CLK2 (Mus musculus, UniProt O35491) | compound NCCOCCOCCO
Response given: < 5.00

Challenge: Query O=C1NC(Nc2ccccc2)=N/C1=C\c1ccccc1 next
Response given: < 5.00

---

A collection of compounds and their measured pIC50
target: Dual specificity protein kinase CLK3 (Mus musculus); experiment: Inhibition of mouse recombinant CLK3 expressed in Escherichia coli using GRSRSRSRSRSR as substrate
Sequence (O35492 whole entry): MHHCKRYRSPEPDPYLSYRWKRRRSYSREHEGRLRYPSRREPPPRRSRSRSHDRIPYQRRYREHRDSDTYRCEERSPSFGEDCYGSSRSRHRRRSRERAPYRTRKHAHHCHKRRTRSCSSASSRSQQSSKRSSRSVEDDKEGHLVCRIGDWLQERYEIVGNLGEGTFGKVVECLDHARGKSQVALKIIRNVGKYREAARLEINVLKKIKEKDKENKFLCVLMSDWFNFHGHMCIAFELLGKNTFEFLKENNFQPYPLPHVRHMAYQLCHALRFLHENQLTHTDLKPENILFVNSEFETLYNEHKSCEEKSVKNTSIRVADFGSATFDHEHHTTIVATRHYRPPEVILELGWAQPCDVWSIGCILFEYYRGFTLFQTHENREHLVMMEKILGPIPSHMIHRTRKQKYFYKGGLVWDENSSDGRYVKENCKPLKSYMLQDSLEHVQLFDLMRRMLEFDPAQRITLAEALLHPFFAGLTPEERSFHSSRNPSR
pIC50: −log10 of the molar value.

Record excerpt, results attached:
- structure-smiles: "NCCOCCOCCO"
  metric: "pIC50"
  result: "< 5.00"
- structure-smiles: "NCCOCCOCCOc1ccc(NC2=N/C(=C\\c3ccccc3)C(=O)N2)cc1"
  metric: "pIC50"
  result: "< 5.00"

Challenge: So what's the measured pIC50 for this one? O=C1NC(Nc2ccccc2)=N/C1=C\c1ccccc1
Response given: < 5.00

---

target: Dual specificity protein kinase CLK1 (Mus musculus); assay: Inhibition of mouse recombinant CLK1 expressed in Escherichia coli using GRSRSRSRSRSR as substrate
Sequence (P22518 whole entry): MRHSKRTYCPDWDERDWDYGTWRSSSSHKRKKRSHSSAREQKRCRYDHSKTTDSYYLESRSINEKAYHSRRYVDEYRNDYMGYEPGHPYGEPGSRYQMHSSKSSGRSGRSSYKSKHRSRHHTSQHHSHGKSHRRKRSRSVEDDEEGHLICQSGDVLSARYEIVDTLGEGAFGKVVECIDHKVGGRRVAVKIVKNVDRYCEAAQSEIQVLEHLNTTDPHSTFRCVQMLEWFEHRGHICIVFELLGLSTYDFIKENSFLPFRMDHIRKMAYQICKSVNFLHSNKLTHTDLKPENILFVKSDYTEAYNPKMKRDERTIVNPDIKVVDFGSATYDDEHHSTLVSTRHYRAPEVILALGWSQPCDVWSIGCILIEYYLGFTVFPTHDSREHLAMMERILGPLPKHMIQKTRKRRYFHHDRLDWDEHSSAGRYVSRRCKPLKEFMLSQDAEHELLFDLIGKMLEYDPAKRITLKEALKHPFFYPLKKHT
metric: IC50

Solved entries:
- structure-smiles: "O=C1NC(Nc2ccccc2)=N/C1=C\\c1ccccc1"
  IC50: "> 10 µM"
- structure-smiles: "NCCOCCOCCOc1ccc(NC2=N/C(=C\\c3ccccc3)C(=O)N2)cc1"
  IC50: "> 10 µM"

Consider now this further compound.
Challenge: Please give the measured IC50 for this compound: NCCOCCOCCO
Response given: > 10 µM

---

target: UniProt O35493; test: Inhibition of mouse recombinant CLK4 expressed in Escherichia coli using GRSRSRSRSRSR as substrate
Sequence (O35493 whole entry): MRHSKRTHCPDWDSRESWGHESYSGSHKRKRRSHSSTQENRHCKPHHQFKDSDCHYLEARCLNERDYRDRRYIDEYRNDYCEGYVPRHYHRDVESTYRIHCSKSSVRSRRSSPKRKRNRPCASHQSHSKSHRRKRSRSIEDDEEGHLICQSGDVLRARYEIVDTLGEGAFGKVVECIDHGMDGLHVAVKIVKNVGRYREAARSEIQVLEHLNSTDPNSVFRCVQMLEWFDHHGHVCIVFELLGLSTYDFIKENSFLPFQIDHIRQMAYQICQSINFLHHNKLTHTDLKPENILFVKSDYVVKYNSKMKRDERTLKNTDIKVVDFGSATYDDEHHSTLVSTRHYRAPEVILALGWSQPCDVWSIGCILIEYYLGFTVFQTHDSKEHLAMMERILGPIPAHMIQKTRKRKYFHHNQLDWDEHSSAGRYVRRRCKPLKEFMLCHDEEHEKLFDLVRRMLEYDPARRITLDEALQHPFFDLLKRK
metric: IC50

- structure-smiles: "NCCOCCOCCOc1ccc(NC2=N/C(=C\\c3ccccc3)C(=O)N2)cc1"
  IC50: "> 10 µM"
- structure-smiles: "NCCOCCOCCO"
  IC50: "> 10 µM"

Then this molecule:
Challenge: Dear colleague, I am looking for the recorded IC50 of the following molecule: O=C1NC(Nc2ccccc2)=N/C1=C\c1ccccc1
Response given: > 10 µM

---

target: Dual specificity tyrosine-phosphorylation-regulated kinase 2 (Homo sapiens, UniProt Q92630); assay: Inhibition of human recombinant DYRK2 expressed in Escherichia coli using GRSRSRSRSRSR as substrate
Sequence (Q92630 whole entry): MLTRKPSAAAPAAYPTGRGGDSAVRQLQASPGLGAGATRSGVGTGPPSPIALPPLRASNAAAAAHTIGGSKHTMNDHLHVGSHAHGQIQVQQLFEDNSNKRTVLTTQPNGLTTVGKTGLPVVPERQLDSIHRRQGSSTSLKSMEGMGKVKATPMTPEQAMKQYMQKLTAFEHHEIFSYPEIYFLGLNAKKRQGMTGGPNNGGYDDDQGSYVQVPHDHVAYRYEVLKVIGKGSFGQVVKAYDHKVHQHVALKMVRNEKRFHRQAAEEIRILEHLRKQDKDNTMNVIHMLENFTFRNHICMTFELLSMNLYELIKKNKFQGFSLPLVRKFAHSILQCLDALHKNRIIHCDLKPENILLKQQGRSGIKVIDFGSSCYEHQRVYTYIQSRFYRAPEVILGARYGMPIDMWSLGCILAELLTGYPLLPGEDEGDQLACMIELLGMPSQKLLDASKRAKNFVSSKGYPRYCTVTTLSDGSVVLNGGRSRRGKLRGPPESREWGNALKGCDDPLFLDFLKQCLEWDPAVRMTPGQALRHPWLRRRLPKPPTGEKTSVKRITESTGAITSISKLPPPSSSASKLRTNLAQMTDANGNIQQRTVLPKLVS
pIC50: −log10 of the molar value.
metric: pIC50

- structure-smiles: "O=C1NC(Nc2ccccc2)=N/C1=C\\c1ccccc1"
  pIC50: "< 5.00"
- structure-smiles: "NCCOCCOCCO"
  pIC50: "< 5.00"

We next turn to a different compound, shown below.
Challenge: May I ask what pIC50 has been recorded for NCCOCCOCCOc1ccc(NC2=N/C(=C\c3ccccc3)C(=O)N2)cc1 ?
Response given: < 5.00
